Values compiled from patent EP3825318A1.

Tested on: HBV
Assay: Anti-HBV activity in vitro: extracellular HBV DNA by qPCR in HepAD38 cells
Format: cell-based
Conditions: Hepatitis B virus, 96 hours incubation, extracellular HBV DNA by direct qPCR, read-out: HBV inh EC50
observation-type: EC50

{"columns": ["compound", "target-or-test-system", "assay-result"],
 "data": [
  ["C[C@@H](NC(=O)C(=O)N1C[C@H]2COc3c(c(Cl)n(C)c3C(=O)Nc3ccc(F)c(Cl)c3)S(=O)(=O)N[C@H]2C1)C(F)(F)F", "HBV", "< 500 nM"],
  ["C[C@@H](NC(=O)C(=O)N1C[C@H]2COc3c(cn(C)c3C(=O)Nc3ccc(F)c(Cl)c3)S(=O)(=O)N[C@H]2C1)C(F)(F)F [Example E1]", "HBV", "< 500 nM"]
]}

// recorded EC50 for C[C@@H](NC(=O)C(=O)N1C[C@H]2COc3c(cn(C)c3C(=O)Nc3ccc(F)c(F)c3)S(=O)(=O)N[C@H]2C1)C(F)(F)F [Example E2] : < 500 nM
